Sourced from ChEMBL document CHEMBL1130097

- Test system: Avian myeloblastosis virus
- assay-details: Inhibitory effect on recombinant AMV reverse transcriptase (Avian Myeloblastosis Virus, AMV)
- Assay type: functional
readout: pIC50
Quick note: pIC50 values are minus log10 of concentrations in mol/L.

Prompt: Give a short answer stating reported pIC50 for O=C(O)P(=O)(O)O [FOSCARNET SODIUM] .
Response: 5.03

----------
- Test system: CCRF-CEM
- assay-details: Effective concentration for inhibition of […] replication in CEM cells.
- Assay type: functional, cell-based
- assay-setup: Homo sapiens
readout: pEC50
Quick note: pEC50 values are minus log10 of concentrations in mol/L.

Prompt: Please report pEC50 with CCRF-CEM for item Cc1c(Sc2ccccc2)n(COCCO)c(=O)[nH]c1=O .
Response: 5.08

----------
Reported pEC50 values for a set of compounds
- assay-details: Effective concentration for inhibition of HIV-1 replication in human peripheral Blood mononuclear cells.(PBMCs)
- Type: functional
Quick note: pEC50 values are minus log10 of concentrations in mol/L.

compound	pEC50
CCCOn1c(Sc2cc(C)cc(C)c2)c(C(C)C)c(=O)[nH]c1=O	6.82

We now examine a further compound.
Prompt: Give a short answer stating reported pEC50 for Cc1cn([C@H]2C[C@H](N=[N+]=[N-])[C@@H](CO)O2)c(=O)[nH]c1=O [ZIDOVUDINE] .
Response: 8.05
